Taken from ChEMBL document CHEMBL5154898.

Assay: Plasma concentration in C57BL/6J mouse at 5 mg/kg , sc measured after 30 mins by UPLC based tandem mass spectrometry analysis
Assay type: ADME, organism-based

Entry Smiles: O=C(O)Cc1ccc(O)cc1Nc1c(Cl)cccc1Cl
Output Unit: µg/mL
concentration at 0.5 h: 6.79

----------
Target: Calcium/calmodulin-dependent protein kinase type II subunit alpha (Rattus norvegicus)
Assay: Displacement of [3H]NCS-382 from CaMK2alpha in rat brain cerebral cortex membrane homogenates assessed as inhibition constant measured after 60 mins by TopCount scintillation counting method
Assay type: cell membranes
pKi: −log10 of the molar value.
Assay Metric: pKi

Entry Smiles: Oc1ccc(Oc2ccccc2Cl)c(Cc2nnn[nH]2)c1
Assay Metric: pKi
Data Value: 7.15
//
Entry Smiles: O=C(O)Cc1ccccc1Oc1ccc(O)cc1CC(=O)O
Assay Metric: pKi
Data Value: 6.08
//
Entry Smiles: O=C(O)Cc1ccc(O)cc1Cc1ccccc1
Assay Metric: pKi
Data Value: 6.30
//
Entry Smiles: O=C(O)Cc1ccc(O)cc1Sc1ccccc1
Assay Metric: pKi
Data Value: 7.11
//
Entry Smiles: O=C(O)C(F)(F)c1cc(O)ccc1Oc1ccccc1Cl
Assay Metric: pKi
Data Value: 5.92
//
Entry Smiles: O=c1[nH]nc(Cc2cc(O)ccc2Oc2ccccc2Cl)[nH]1
Assay Metric: pKi
Data Value: 6.38

----------
Assay: Brain concentration in C57BL/6J mouse at 10 mg/kg , po measured after 30 mins by UPLC based tandem mass spectrometry analysis
Type: ADME, organism-based
Conditions: read-out: Ct
Assay Metric: concentration at 0.5 h (ng/mL)

Entry Smiles: Oc1ccc(Oc2ccccc2Cl)c(Cc2nnn[nH]2)c1
Data Value: 22

Entry Smiles: O=C(O)Cc1ccc(O)cc1Oc1ccccc1Cl
Data Value: 308

----------
The following compounds are shown together with reported pIC50 values.
Molecular target: Calcium/calmodulin-dependent protein kinase type II subunit alpha (Rattus norvegicus, UniProt P11275)
Sequence (P11275 whole entry): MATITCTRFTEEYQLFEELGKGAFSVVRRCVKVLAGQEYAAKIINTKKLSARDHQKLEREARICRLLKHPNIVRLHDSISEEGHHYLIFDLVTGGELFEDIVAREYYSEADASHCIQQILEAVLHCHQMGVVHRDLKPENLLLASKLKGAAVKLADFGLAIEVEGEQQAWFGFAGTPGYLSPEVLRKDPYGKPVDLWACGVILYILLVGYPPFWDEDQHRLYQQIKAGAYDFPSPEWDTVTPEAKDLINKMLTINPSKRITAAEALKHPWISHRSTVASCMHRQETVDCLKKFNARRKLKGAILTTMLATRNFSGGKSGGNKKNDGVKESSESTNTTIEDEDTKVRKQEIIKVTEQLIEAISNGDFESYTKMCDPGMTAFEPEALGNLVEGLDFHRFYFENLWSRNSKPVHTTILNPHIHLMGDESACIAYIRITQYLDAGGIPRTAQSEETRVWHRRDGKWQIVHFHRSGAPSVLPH
Experiment: Inhibition of [3H]NCS-382 binding to CaMK2alpha in rat cerebrocortical membranes
pIC50: −log10 of the molar value.
Assay Metric: pIC50

Compound: O=C(O)Cc1cccc(O)c1 [3-Hydroxyphenylacetate]
Data Value: 6.89

Compound: O=C(O)Cc1ccccc1O
Data Value: 5.68

----------
System: MDR1 (P-gp)
Experiment: Apparent permeability across apical to basolateral side in dog MDCKII-MDR1 cells at 3 uM preincubated with P-gp inhibitor elacridar for 15 to 30 mins followed by compound addition and measured after 60 to 90 mins by LC-MS/MS analysis
Format: ADME, cell-based, Canis lupus familiaris
Conditions: MDCK-MDR1, with elacridar (P-gp inhibitor; concentration not stated), time 60-90 min
Assay Metric: Papp A→B at 3 µM (×10⁻⁶ cm/s)

Entry Smiles: O=C(O)Cc1ccc(O)cc1Nc1c(Cl)cccc1Cl
Target System: MDR1 (P-gp)
Assay Metric: Papp A→B at 3 µM
Data Value: 4.15

----------
Target: Calcium/calmodulin-dependent protein kinase type II subunit alpha (Homo sapiens, UniProt Q9UQM7)
Sequence (Q9UQM7 whole entry): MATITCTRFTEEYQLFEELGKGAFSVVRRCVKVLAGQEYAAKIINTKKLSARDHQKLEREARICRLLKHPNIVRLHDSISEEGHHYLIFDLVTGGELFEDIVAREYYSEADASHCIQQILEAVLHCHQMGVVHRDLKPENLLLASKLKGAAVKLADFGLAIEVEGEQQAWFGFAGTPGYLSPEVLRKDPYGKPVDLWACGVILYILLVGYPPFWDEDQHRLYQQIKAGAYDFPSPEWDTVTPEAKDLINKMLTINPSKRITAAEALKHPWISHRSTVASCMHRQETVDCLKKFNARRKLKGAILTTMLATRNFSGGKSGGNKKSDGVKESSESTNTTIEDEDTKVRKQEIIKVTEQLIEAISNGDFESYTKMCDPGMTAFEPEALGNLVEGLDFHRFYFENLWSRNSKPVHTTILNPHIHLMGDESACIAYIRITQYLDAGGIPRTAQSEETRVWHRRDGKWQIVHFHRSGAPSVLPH
Experiment: Inhibition of [3H]NCS-382 binding to CaMK2alpha (unknown origin)
pKi: −log10 of the molar value.
# maps each entry to its pKi
Assay Metric: pKi

Compound: O=C(O)CCCO [OXYBATE]
Lt Gt Eq: =
Data Value: 5.37
--
Compound: O=C(O)Cc1ccc(O)cc1
Lt Gt Eq: =
Data Value: 5.66
--
Compound: O=C(O)/C=C/c1ccccc1 [CINNAMIC ACID]
Lt Gt Eq: <
Data Value: 4.00
--
Compound: O=C(O)Cc1ccccc1Nc1c(Cl)cc(O)cc1Cl [4'-HYDROXY-DICLOFENAC]
Lt Gt Eq: =
Data Value: 5.68
--
Compound: O=C(O)/C=C/c1ccc(O)cc1 [COUMARIC ACID]
Lt Gt Eq: <
Data Value: 4.00
